Tested on: Staphylococcus aureus
Experiment: Antibacterial activity against Staphylococcus aureus USA300 incubated for 12 hrs by microdilution method
Format: functional
Bridges are numbered along the chain shown (N, C = ends). Roman numbers before positions name the chains, in order.
TEST_READOUT: MIC

Give MIC (Staphylococcus aureus) of the following substance: I: H-KLLKRIKTLLKK-NH2 / II: H-KLLKRIKTLLK / III: H-KLLKRIKTLL / IV: H-KLLKRIKTLL (amide I:11-IV:C, I:12-II:C, II:11-III:C)
3 µM

Then what about the substance I: H-GRFKRFRKKLKK-NH2 / II: H-GRFKRFRKKLK / III: H-GRFKRFRKKL / IV: H-GRFKRFRKKL (amide I:11-IV:C, I:12-II:C, II:11-III:C) ?
> 25 µM

Then what about the substance I: H-TLLKKVLKAAAKKK-NH2 / II: H-TLLKKVLKAAAKK / III: H-TLLKKVLKAAAK / IV: H-TLLKKVLKAAAK (amide I:13-IV:C, I:14-II:C, II:13-III:C) ?
> 25 µM

Then what about the substance I: H-KKLLGKNWKLMKK-NH2 / II: H-KKLLGKNWKLMK / III: H-KKLLGKNWKLM / IV: H-KKLLGKNWKLM (amide I:12-IV:C, I:13-II:C, II:12-III:C) ?
> 25 µM

More entries:
Give MIC (Staphylococcus aureus) of the following substance: I: H-LLKKVLKAAAKKK-NH2 / II: H-LLKKVLKAAAKK / III: H-LLKKVLKAAAK / IV: H-LLKKVLKAAAK (amide I:12-IV:C, I:13-II:C, II:12-III:C)
> 25 µM
